Experiment: soluble on expression in E. coli; label from the status in PepcDB or PDB records

residue_string	soluble on expression in E. coli
MGSDKIHHHHHHMNNPISDDYRNLLVEVKQRIRSAQYEALKAVNKELIALYWDIGKMIVTQQQEADWGKSVVEQLAKDLQTEFPGISGFSTRNMWNMRSFYIAYSQNEKLQPLVAEIGWTHNIVILEKCKDDLEREFYLRMTRKFGWTKNVLIHQIENQTYEKTLLNQTNFNQTVPAEIRNQLKLAVKDEYTFDFLELADEHSERQLEQAILARVEPFLQEMGGRFTFVGSQYRLEIGDQEFFIDLLLYHRQLKCLVAVELKTGEFLPEYVGKMQFYLAALDDLSRLPDENLSIGIILCKSKNKTIVEYALRESNKPIGVATYKVFSSLPQDLRNQLPAPEQVAKLLEGVE	not soluble
MGSDKIHHHHHHMGQSEVNFYQQEVVELLKQVIEPNLKNDIVSLGMVRNLRIVDDYVYLRLYIGSHQQQLQTEVEAKLSALSWCKKTYIQICTIPGVKITLGISSGKGGVGKSTTAVNIAAALSLQGAKVGLLDADVYGPNVPQMLGLGQADVEVIQTPTGEKFLPLEVQGIKLMSVGLLAEENRPLAWRGPVLHKIITQFINDVEWGELDYLLIDLPPGTGDAQITIIQESPICGVILVTTPQQVAVADVRRNIYMFRQVGVPVLGIVENMSYLICGDCGSRTYIFGSGGGEQLATELQAPLLGQIPIDQRICSGGDSGNPIAISEQTSPASEVFRNIAIAIGLSFP	not soluble
MGSDKIHHHHHHMSKYDVSISVIMGVYNQNDEKVLREAVDSILNQTFKDFEFIIYDDGSQPDAALILEKIKKIDPRIVLIGQEKNHGLAFSLNACIEQARGKYIARMDADDISDPNRLKVQYDFLEKNPQYSWCGCNARLLDENGIWGTREMPEAPAEKDYLKYSPYIHPTVMYRASLFEETDGYKVSEETLLCEDYEIFMRLRQMGKRGYNIQETLFTYREDSDSYRRRDFKRGINEAKVRFENFNKLHVLFPTGWVYVFRPIIACLVPREMIYILKRMKTRKKPWKKELESELIITGK	not soluble
MGSDKIHHHHHHMEKSKYKRDWSKYDENVITRYKLMFPFYVFEHWWDLLAEENRNARTKYKAPKEFNEFLAFLHIFLPYRAIEGVLRALEQLKIIPTSLDYSTIWERVRNMNITFPETSDELEVIADATGISTNTGGQYIVAKWGKTRDSKFLKIEIVMDNNEFNVINAEVTSNEVESAVKTVKDLQDKGKKVKKFYGDKAYDANEVYKTGVEVVVPPKKNASTKRHLARRKAVREFRKLGYDRWKEEKGYGVRWRVESLFSAVKRTFGESVRQVLLGK	not soluble
MAHVAEWKKKEVEELAKLIKSYPVIALVDVSSMPAYPLSQMRRLIRENGGLLRVSRNTLIELAIKKAAKELGKPELEKLVEYIDRGAGILVTNMNPFKLYKFLQQNRQPAPAKPGAVVPKDVVVPAGPTPLAPGPIVGQMQALGIPARIEKGKVTIQKDTTVLKAGEVITPELANILNALGIQPLEVGLDVLAVYEDGIVYTPDVLAIDEQEYIDMLQKAYMHAFNLAVNIAYPTPETIEAIIQKAFLNAKTVAIEAGYITKETIQDIIGRAFRAMLLLAQQLP	soluble
AEAKSKLTVALGKDIAGTPVVGDLAKMPHLLVAGMTGSGKSVGVNGMIMSMLFKATPDEVRFIMIDPKMLELSIYDGIPHLLCPVVTDMREAGQALNWCVAEMEKRYRLLSHAGVRNLEGFNQKVEAAKAAGKPLLNPFSLNPDEPEPLEKLPLIVVVIDELADLMMTERKAVEQQIARLAQKARAAGIHMIVATQRP	not soluble
GPGSMHAAPYEEVALSDMLLEDGKLRYPCPCGDLFELSLSEFAKGSVVAECPTCSLTVRIICNEEERHAFLLRCNALNGVRDVVIA	not soluble
MASMTGGQQMGRDLQVTLYGTIKAGVEVSRVKDAGTYKAQGGKSKTATQIADFGSKIGFKGQEDLGNGMKAIWQLEQKASIAGTNSGWGNRQSFIGLKGGFGTVRAGNLNTVLKDSGDNVNAWESGSNTEDVLGLGTIGRVESREISVRYDSPVFAGFSGSVQYVPRDNANDVDKYKHTKSSRESYHAGLKYENAGFFGQYAGSFAKYADLNTDAERVAVNTANAHPVKDYQVHRVVAGYDANDLYVSVAGQYEAAKNNEVGSIKGKKHEQTQVAATAAYRFGNVTPRVSYAHGFKAKVNGVKDANYQYDQVIVGADYDFSKRTSALVSAGWLKQGKGAGKVEQTASMVGLRHKF	soluble
MGSDKIHHHHHHMGNILWVASYPKSGNTWVRAFLENYIQNQAQPIDINTMHTISTAESAAHRYQHYLPKDKTATTELTLEEVSVLRPQVQADIAHQANGTTFVKTHNYLGEYNGHPLHNSSVTSGAIYVVRNPLDVAISMANYFGYSIDEAIAYMAEEMTGTPNEAPHVPQIITSWSMHVSSWTADDASKLILRYEDMLDDPKKVFRKVESFLGLKKDPVRLKNAIKHSSFAQLKAQETKLGFVEKHENANAFFRNGGKHQWKTKLTPEQVQKIVATHYEQMKRFKYLPAGM	not soluble
ANIIANTALTIGATKVDVKEITPELLASLNEIGGSEANVASGYHAIEFLLWGQDLNGTKAGAGARSYTDYLQGKACTNNHCDRRAQYLKAAAQLLVTDLEWMEKQWASGEKDNYRQQLLSESAENGLRKMLFGMGSLSLGELAGERMKVALEANSTEDEHDCFSDNTHNSHYYNEQGIYNIYTGSYTRADGSELKGPSLYQLVAEKDANAAKEILQQFEAARTQVGELVTAAEKNNQHFDQLIAADNAAGHAIINQAIMALVAQTGSIERAAGIIGIDNLNPDTADHEF	not soluble
MISRPESSLSGLESSQEVQKKTWNPRNYSARLTENIGLPLILLEKHNPWPAYVAYISPAVTRITEKGWARDLEYIYAAEKNGKPVKRSKHSAVLLKRRKPSKPSELMLKETLSETMLPTWECSTIYVSPTFVPEPAQLQMDVREGPTSNYNKIIFSKRPAMRKLPFGLLQASKEMHTKD	soluble
